System: K4 kissing-loop RNA reporter;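 also: bound reporter read as fluorescence of individual clusters on recovered sequencing chips by microscopy, with normalized cluster intensities fitted with a binding model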
method: apparent KD of K4 kissing-loop reporter; higher = weaker reporter binding
study_conditions: Eterna round: R107; input ligand: FMN 200 uM
property_name: apparent KD of K4 kissing-loop reporter (nM)
Give bare numbers, in nM.

// solved cases for apparent KD of K4 kissing-loop reporter follow
UGUCAUUGGUCGGCCGCCACUCCGUAACGAGUGAUGUUCUAAAAGACGGAUCGAAAGAUCUGUCGGAGGACCGGGACCGAUGACU [FiskerMod 7 - Jieux - Same State - Tryptophan B] : 725
UGACUGGAUGGAAGGAGCGCUAAACUCCUAGUGAUGUUAGGGACACGAGACAAAGUCUUGAGGCAGGUAGGUCGCCAUCUAGUCU [FiskerMod 8 - Jieux - Same State - Arginine B] : 379
ACUGGGUUGACGAAAGUCAACAAAAGAGAAGGAGCGCACGAAAGUGCAGGUAGGUCGCUCAUUCCAGUGAUGUUGGAUCACCAGA [#SwitchBubble 18 #K4Late] : 242

For each of the sequences below, note its apparent KD of K4 kissing-loop reporter.
1. GGUAGCAUGGCGGCCGCCACUAAGAGAGUGAUGUUCUCUUAGUUUUUUGAUGUGUUAUCAAUUCUUAGGACCGGGCCAUGCUACC
2. UGCCGCAAGGCGAGCGCUCCCACUCCGGAAGGAGCGCCCGUAAGGGCAGGUAGGUCGCCGGAGUGAUGUUCCGGUGGAGGGCUCG [#2 Exclusion - Arginine A Attempt #24 (Inspired by Omei)]

stdout:
[111, 1270]

---

System: MS2 coat protein
method: apparent KD of MS2 coat protein; higher = weaker reporter binding
study_conditions: Eterna round: R107; input ligand: theophylline 20 uM
Please respond with reported apparent KD of MS2 coat protein for every item in the list.
Give bare numbers, in nM.

UCGUGUGUUUCGGAUACCAGUGAAAUCGAUACAUGAGGAUCACCCAUGUGAGAGGAUGUACACCCUUGGCAGCUGGCUGUAGCGG [yyzmullin] : 56.9
ACAUGAGGGAUGGAUACCAGCGACAUGAGGAUCACCCAUGUAUGAGGAUCAGCCAUGUUAUGCCCUUGGCAGCCACGAACAUGAG [ACFMULLIN] : 103
UUAAUGGAGCUUUAAUUUACGAUUUCUGAUACCAGUGUUUCAUUUCACCCUUGGCAGCAGUGACAUGAGGAUCACCCAUGUAAUA [JR_Nu_SSTheophyA_Sub022] : 35.5
UGUAUGUGAUCUGAUACCAGUCCAACUGGUAAAAGAUGAGGAUCACCCAUCUAAAAUUGGGACCCUUGGCAGCAGAUCGCAUACU : 122
UUUUACAUGAGGAUCACCCAUGUGCGGCGCCGAGGACCGGUACGGCCGCCACUCGCAUGGGCAUGCCGCGAUAUCAUUCCUGAAC [theeternabot_sameState_MS2_Trp_A_43] : 249

Fill in: MS2 coat protein apparent KD of MS2 coat protein for GCCGCUGCCGCGGUGUGUGUGGGUGGGUGACGAGGACCGGUACGGCCGCCACUCGCGAUCGCACAUGAGGAUCACCCAUGUGUAA [Exclusion Tryp A GF20] = 20.7

---

System: MS2 coat protein
method: apparent KD of MS2 coat protein; designed switch direction (-1 OFF switch, 1 ON switch): -1; higher = weaker reporter binding
study_conditions: input ligand: none
property_name: apparent KD of MS2 coat protein (nM)
Numbers only, in nM.

Before answering, review these 3 worked examples.
GGAUAAAAUCGAGGAUAUACGCACCACUAACGAGUAGAAGGCGAACAUGAGGAUCACCCAUGUGAGUUCUCAAUAAGAAACACG [Prohibition 68 - Jieux - Exclusion NG 1] (Eterna round: R96, puzzle: Exclusion NG 1) : 35.1
UCUGCCGCCGUGAGGAUAUGCCCGCGCGAACGCGGGCAGAAGGCACAUGAGGAUCACCCAUGUCCCGCGGUUUU [salish99_bmx4_r4_132] (Eterna round: R97, puzzle: Brourd's mod of Exclusion 4) : 17.2
UAAGGUGGUACCAUGAACAUGAGGAUCACCCAUGUACCUUAGAAGGAUAUCGCGACGUGUACGCGCGAGAAGGUCUACAACGUA [Eternabot solution 35] (Eterna round: R96, puzzle: Exclusion NG 3) : 77.5

Measured on MS2 coat protein, CCCGUGUAAGGAUAUCGUUCACUUGGCAAAAGUCGAGUGGACGAGAAGGUACAUGAGGAUCACCCAUGUACGGG [-32.4, -32 kcal, A 28%] (Eterna round: R97, puzzle: Exclusion 4) has a documented apparent KD of MS2 coat protein of 282
